- method summary: amyloid nucleation score (Sup35N fusion, yeast selection) (log enrichment); library NNK3; higher = more nucleation; inactive = no reads after selection;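 note: zero at mode of non-aggregating sequences after 7 days selection at 30°C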
assay endpoint: amyloid nucleation score

Worked examples, 5 substances total:
| substance | amyloid nucleation score |
| --- | --- |
| MSKHRMFLSGRLFRANEVRP | inactive |
| NTYLVWIPRSFGQGKSNCLK | inactive |
| DLIVILLTSYMYENVVVLNF | inactive |
| IWTLVVCFLDVRRRR | -0.05 |
| GYSNFDCLSSLNISEYGPAA | inactive |

stdin: Name the reported amyloid nucleation score value associated with the substance `NFRNRMRVLFSCS`
stdout: inactive

stdin: Name the reported amyloid nucleation score value associated with the substance `PTITNS`
stdout: inactive

stdin: Name the reported amyloid nucleation score value associated with the substance `TVRFLVHYITAKGKSVGITK`
stdout: inactive

stdin: Name the reported amyloid nucleation score value associated with the substance `SPGYINGNGSSVRSVFNL`
stdout: inactive

stdin: Name the reported amyloid nucleation score value associated with the substance `IGYKLNFCASILDFSYCKIY`
stdout: 1.07

stdin: Name the reported amyloid nucleation score value associated with the substance `PFPQWEKHYYFFAMNYFHFS`
stdout: 1.75

stdin: Name the reported amyloid nucleation score value associated with the substance `AWRCLGSYCMRLRVSIKSQ`
stdout: inactive

stdin: Name the reported amyloid nucleation score value associated with the substance `QGYMFFCHYIDICS`
stdout: inactive

stdin: Name the reported amyloid nucleation score value associated with the substance `WKLASVFAVSMR`
stdout: inactive

stdin: Name the reported amyloid nucleation score value associated with the substance `NLAFAVYARTRLKLSPASCV`
stdout: inactive

stdin: Name the reported amyloid nucleation score value associated with the substance `RTFPNTWHAMIFGCVNKPNC`
stdout: inactive

stdin: Name the reported amyloid nucleation score value associated with the substance `GADMKTRRSARGLMWTMGSS`
stdout: inactive

stdin: Name the reported amyloid nucleation score value associated with the substance `TTFFGCSFGLCRAIIGLDNV`
stdout: 1.34

----------
- method summary: amyloid nucleation score (Sup35N fusion, yeast selection) (log enrichment); library NNK3; higher = more nucleation; inactive = no reads after selection
assay endpoint: amyloid nucleation score

Worked examples, 5 substances total:
| substance | measurement |
| --- | --- |
| LFELDKLNRVHLNGVMGVII | inactive |
| ILAHPCSYRFGSWGRLINRN | inactive |
| GASCLCWNYRDRLRTEVRYY | inactive |
| CVNLYVELKFNHFDFVS | 2.04 |
| SISMQVNHPEY | inactive |

stdin: Name the reported amyloid nucleation score value associated with the substance `LYVVWYSHPWTEYFACSLVA`
stdout: inactive

stdin: Name the reported amyloid nucleation score value associated with the substance `SCMCYGTLLVLLYISYVMVE`
stdout: inactive

stdin: Name the reported amyloid nucleation score value associated with the substance `GAHANM`
stdout: inactive

stdin: Name the reported amyloid nucleation score value associated with the substance `SNRKPWARHIVDRACM`
stdout: -0.922

----------
- method summary: amyloid nucleation score (Sup35N fusion, yeast selection) (log enrichment); library NNK1; higher = more nucleation; inactive = no reads after selection
Mark Criterion not met for amyloid nucleation score values under 0.3, and Criterion met for everything at or above.

| sequence content | class |
| --- | --- |
| PFTVTKFRSYEISVINLPNW | Criterion met |
| LFNGLYHLVMRVMWRRLV | Criterion not met |
| ALFESRPYTLSRERDKL | Criterion not met |
| LWLTFFSQ | Criterion met |
| RTCYNRDTEMSRGCYTMRVA | Criterion not met |
| LMHRFPSINRLHTAPMPRAT | Criterion met |
| DTVSMLHQLVCW | Criterion met |
| AYAVVGAM | Criterion met |

stdin: Check this sequence for amyloid nucleation score at or above 0.3: `YYCTQRLNSHSVLMSLADRW`
stdout: Criterion not met

stdin: Check this sequence for amyloid nucleation score at or above 0.3: `VLGYAFYCYLCRNLRRNNFS`
stdout: Criterion met

stdin: Check this sequence for amyloid nucleation score at or above 0.3: `RNDHSRDHPFLDISWVCLGQ`
stdout: Criterion met

stdin: Check this sequence for amyloid nucleation score at or above 0.3: `RDDDPYVQDRPLRDFVFKKY`
stdout: Criterion not met

stdin: Check this sequence for amyloid nucleation score at or above 0.3: `MMPSECMEFLMCLWFGSGSD`
stdout: Criterion not met

stdin: Check this sequence for amyloid nucleation score at or above 0.3: `HSCVPICNEYSAADRSYFRY`
stdout: Criterion met

stdin: Check this sequence for amyloid nucleation score at or above 0.3: `EAFYFRLRKLFDRNPGGEGT`
stdout: Criterion met

Cited source: the supplement of paper PMC12042874
